# Test system: HCC1428 PARPi resistant cell line
# Assay procedure: Cell proliferation assay, acquired PARPi resistant line
# Type: cell-based
# Condition description: Homo sapiens; HCC1428 PARPi resistant cell line (FIG. 2)
pIC50: −log10 of the molar value.
Measured attribute: pIC50

>>> print(df.to_string())
                                   compound  result_number
0  C[C@H]1CN(c2cc(S(=O)(=O)NC3(C)CC3)cc3c2cnn3-c2nnc(C(F)F)s2)C[C@H](C)N1 [Formula A]           8.10

* * *

# solubility kinetic at 24 h annotations
# Assay procedure: Kinetic solubility in PBS pH 2.0 and pH 7.4
# Type: physicochemical
# Condition description: aqueous buffer, kinetic from dmso stock, PBS pH 2.0, 25° C., * n <3 runs, read-out: Kinetic Solubility pH 2.0
Measured attribute: solubility kinetic at 24 h (µM)

>>> df
                            molecule_smiles          measured_attribute  inequality_operator  result_number
0  C[C@@H]1CN(c2cc(S(=O)(=O)NC3(C)CC3)cc3c2cnn3-c2nnc(C(F)F)s2)C[C@H](C)N1  solubility kinetic at 24 h                    =            271
1  CC(C)C(=O)N1CCN(c2cc(S(=O)(=O)NC3(C#N)CC3)cc3c2cnn3-c2nnc(C(F)F)s2)C[C@@H]1C  solubility kinetic at 24 h                    =            3.4
2  CC(C)C(=O)N1[C@H](C)CN(c2cc(S(=O)(=O)NC3(C#N)CC3)cc3c2cnn3-c2nnc(C(F)F)s2)C[C@@H]1C  solubility kinetic at 24 h                    <           0.03
3  CC(C)C(=O)N1CCN(c2cc(S(=O)(=O)NC3(C#N)CC3)cc3c2cnn3-c2nnc(C(F)F)s2)CC1  solubility kinetic at 24 h                    =            1.1

Numbers sourced from patent US20230303556A1.
